assay-overview: RP, Waters ACQUITY UPLC BEH C18, 100 × 1 mm, 1.7 µm, 50 °C, 0.3 mL/min, estimated dead time 0.17 min; A: water + 0.1% formic acid + 20 mM ammonium formate; B: methanol + 0.1% formic acid + 20 mM ammonium formate; gradient (min/%B) 0/0 15/100 21/100 22/0 30/0
condition-set: stereoisomer not certain

[
  {
    "compound": "C#CC1(O)C=CC2C3CCC4=CC(=O)CCC4C3CCC21CC (centres undefined) [Gestoden]",
    "LC retention time": "14 min"
  },
  {
    "compound": "CON=C(C(=O)O)c1ccccc1CON=C(C)c1cccc(C(F)(F)F)c1",
    "LC retention time": "15.6 min"
  },
  {
    "compound": "O=C(O)CCc1c[nH]c2ccccc12 [3-Indolepropionic acid]",
    "LC retention time": "11.7 min"
  },
  {
    "compound": "CN(C)c1ccc(O)c2c1CC1CC3C(N(C)C)C(=O)C(C(N)=O)=C(O)C3(O)C(=O)C1=C2O (centres undefined) [Minocyclin]",
    "LC retention time": "8.3 min"
  },
  {
    "compound": "Cc1ccc(C(C)NC(=O)C(NC(=O)OC(C)C)C(C)C)cc1 (centres undefined) [Iprovalicarb]",
    "LC retention time": "14.8 min"
  },
  {
    "compound": "CC(C)OC(=O)Nc1ccccc1 [Propham]",
    "LC retention time": "12.7 min"
  },
  {
    "compound": "CC(C1CC1)C(O)(Cn1cncn1)c1ccc(Cl)cc1 (centres undefined) [Cyproconazole]",
    "LC retention time": "14.5 min"
  },
  {
    "compound": "O=C(O)c1ccc2ccccc2n1 [Quinaldic acid]",
    "LC retention time": "7.3 min"
  },
  {
    "compound": "CCOC(=O)Nc1cccc(OC(=O)Nc2ccccc2)c1 [Desmedipham]",
    "LC retention time": "13.5 min"
  }
]

====

Entries and their LC retention time
assay-overview: RP, Waters ACQUITY UPLC BEH C18, 100 × 1 mm, 1.7 µm, 50 °C, 0.3 mL/min, estimated dead time 0.17 min; A: water + 10 mM ammonium bicarbonate; B: 10% water + 90% methanol + 10 mM ammonium bicarbonate; gradient (min/%B) 0/0 15/100 21/100 22/0 30/0
condition-set: stereoisomer not certain

[
  {
    "compound": "O=S(=O)(O)c1ccccc1",
    "LC retention time, min": 2.77
  },
  {
    "compound": "CC(=O)c1cc(C(C)(C)C)cc2c1CCC2(C)C [Celestolide]",
    "LC retention time, min": 17.9
  },
  {
    "compound": "NC(=O)N1c2ccccc2C2OC2c2ccccc21 (centres undefined) [Carbamazepine-10,11-epoxide]",
    "LC retention time, min": 11
  },
  {
    "compound": "N#Cc1nn(-c2c(Cl)cc(C(F)(F)F)cc2Cl)c(N)c1S(=O)(=O)C(F)(F)F",
    "LC retention time, min": 16
  }
]

====

assay-overview: RP, Waters ACQUITY UPLC BEH C18, 100 × 1 mm, 1.7 µm, 50 °C, 0.3 mL/min, estimated dead time 0.17 min; A: water + 0.1% formic acid + 20 mM ammonium formate; B: methanol + 0.1% formic acid + 20 mM ammonium formate; gradient (min/%B) 0/0 15/100 21/100 22/0 30/0
condition-set: stereoisomer not certain
Entries and their LC retention time

[
  {
    "compound": "CC(=O)N(C)N(C(=O)C(=O)N(C)C)c1ccccc1 [AMDOPH]",
    "LC retention time / min": 9.42
  },
  {
    "compound": "C=C1CCC2C(C=C(C)C(=O)C3(O)CC(C)C(O)C3C1O)C2(C)C (configuration not stated) [Lathyrol]",
    "LC retention time / min": 14.7
  },
  {
    "compound": "Nc1ccc(Br)cc1 [4-Bromoaniline]",
    "LC retention time / min": 8.49
  },
  {
    "compound": "CC(=O)NCC1CN(c2ccc(N3CCOCC3)c(F)c2)C(=O)O1 (configuration not stated) [Linezolid]",
    "LC retention time / min": 9.9
  },
  {
    "compound": "O=c1c(O)c(-c2ccc(O)cc2)oc2cc(O)cc(O)c12 [Kaempferol]",
    "LC retention time / min": 12.3
  },
  {
    "compound": "COC(=O)c1ccc(C(=O)OC)cc1 [Dimethyl terephthalate]",
    "LC retention time / min": 11.1
  },
  {
    "compound": "CC(=O)C1(O)CCC2C3CC(C)C4=CC(=O)C=CC4(C)C3(F)C(O)CC21C (configuration not stated) [Fluorometholone]",
    "LC retention time / min": 13.8
  },
  {
    "compound": "CCC(C)C(=O)OC1CC(O)C=C2C=CC(C)C(CCC(O)CC(O)CC(=O)O)C21 (configuration not stated) [Pravastatin]",
    "LC retention time / min": 13.3
  },
  {
    "compound": "O=c1c(O)c(-c2ccc(O)c(O)c2)oc2cc(O)cc(O)c12 [Quercetin]",
    "LC retention time / min": 11.4
  },
  {
    "compound": "N=c1nc(N)c(-c2cccc(Cl)c2Cl)nn1O [Lamotrigin-N2-Oxid]",
    "LC retention time / min": 9.42
  },
  {
    "compound": "CC1OC(OC2CCC3(C=O)C4CCC5(C)C(C6=CC(=O)OC6)CCC5(O)C4CCC3(O)C2)C(O)C(O)C1O (configuration not stated) [Convallatoxin]",
    "LC retention time / min": 11.2
  },
  {
    "compound": "OCC(O)CN1CCN(c2ccccc2)CC1 (configuration not stated) [Dropropizine]",
    "LC retention time / min": 6.44
  },
  {
    "compound": "CCCCCCCCCCCCOC(=O)c1ccccc1C(=O)OCCCCCCCCCCCC [Didodecylphthalate]",
    "LC retention time / min": 21.7
  },
  {
    "compound": "COC(=O)C1C(O)CCC2CN3CCc4c([nH]c5ccccc45)C3CC21 (configuration not stated) [Yohimbine]",
    "LC retention time / min": 9.26
  },
  {
    "compound": "CC(C)c1ccc(N)cc1 [4-Isopropylaniline]",
    "LC retention time / min": 9.8
  },
  {
    "compound": "CC1(C)CC(N)CC(C)(CN)C1 (configuration not stated) [Isophorone diamine]",
    "LC retention time / min": 2.02
  },
  {
    "compound": "Fc1ccc(C2CCNCC2COc2ccc3c(c2)OCO3)cc1 (configuration not stated) [Paroxetine]",
    "LC retention time / min": 12.8
  },
  {
    "compound": "COc1ccc(C(=O)c2ccccc2)c(O)c1 [Benzophenone-3]",
    "LC retention time / min": 15
  },
  {
    "compound": "CCNc1nc(Cl)nc(NC(C)(C)C#N)n1 [Cyanazin]",
    "LC retention time / min": 11.3
  },
  {
    "compound": "CCOC(=O)CCN(Cc1ccccc1)SN(C)C(=O)ON=C(C)SC [Alanycarb]",
    "LC retention time / min": 15.5
  },
  {
    "compound": "Nc1ccc2nc3ccc(N)cc3nc2c1 [2,8-Diaminophenazine]",
    "LC retention time / min": 8.24
  },
  {
    "compound": "O=c1cc(-c2ccccc2)c2c(O)cc(O)cc2o1 [5,7-Dihydroxy-4-phenylcoumarin]",
    "LC retention time / min": 12.1
  },
  {
    "compound": "Oc1c(Cl)cc(-c2ccc(Cl)cc2)cc1Cl [4-Hydroxy-3,4',5-trichlorobiphenyl]",
    "LC retention time / min": 16.9
  },
  {
    "compound": "CC(=O)OCC(COC(C)=O)OC(C)=O [Triacetin]",
    "LC retention time / min": 9.42
  },
  {
    "compound": "CCC1OC(=O)C(C)C(OC2CC(C)(OC)C(O)C(C)O2)C(C)C(OC2OC(C)CC(N(C)C)C2O)C(C)(O)CC(C)C(=NOCOCCOC)C(C)C(O)C1(C)O (configuration not stated) [Roxithromycin]",
    "LC retention time / min": 14.3
  },
  {
    "compound": "Nc1ccc(Nc2ccccc2)cc1 [4-Aminodiphenylamine]",
    "LC retention time / min": 8.71
  },
  {
    "compound": "COc1nc(C)nc(N)n1 [2-Amino-4-methoxy-6-methyl-1.3.5-triazine (MMT)]",
    "LC retention time / min": 5.15
  },
  {
    "compound": "CC(C)(C)NCC(O)COc1nsnc1N1CCOCC1 (configuration not stated) [Timolol]",
    "LC retention time / min": 9.08
  },
  {
    "compound": "C=CC12CN(C)C3C4COC(CC41)C1(C(=O)Nc4ccccc41)C32 (configuration not stated) [Gelsemine]",
    "LC retention time / min": 7.38
  },
  {
    "compound": "O=C(O)COc1ccc(Cl)cc1Cl [2,4-Dichlorophenoxyacetic acid]",
    "LC retention time / min": 12.9
  },
  {
    "compound": "COc1ccc(-c2coc3cc(O)ccc3c2=O)cc1 [Formononetin]",
    "LC retention time / min": 13.2
  },
  {
    "compound": "CC(C)=CCOc1c2occc2cc2ccc(=O)oc12 [Imperatorin]",
    "LC retention time / min": 14.3
  },
  {
    "compound": "O=C1CCCCCCCCCCCN1 [Dodecane-12-lactam]",
    "LC retention time / min": 14
  },
  {
    "compound": "CC(C)(C)c1cc(-n2nc3ccccc3n2)c(O)c(C(C)(C)C)c1 [UV-320]",
    "LC retention time / min": 19.8
  },
  {
    "compound": "Nc1ccc2nc3c(N)cccc3nc2c1 [1,7-Diaminophenazine]",
    "LC retention time / min": 8.24
  },
  {
    "compound": "CCOC(=O)CC(O)(CC(=O)OCC)C(=O)OCC [Triethylcitrate]",
    "LC retention time / min": 11.9
  },
  {
    "compound": "CCC(=O)C(CC(C)N(C)C)(c1ccccc1)c1ccccc1 (configuration not stated) [Methadone]",
    "LC retention time / min": 13.1
  }
]
